# experimental.system: α-chymotrypsin (Bos taurus, UniProt P00766)
Bridge positions count the residues as written; N and C are the ends. Peptide text beside a SMILES is read from it.
measured.metric: IC50

Consider the following illustrative entries.
>>> measured_value("CC[C@H](C)[C@@H]1NC(=O)[C@H](CO)NC(=O)[C@H](Cc2ccccc2)NC(=O)[C@H]([C@@H](C)O)NC(=O)[C@H](C)NC(=O)[C@H](Cc2ccccc2)NC(=O)CNC(=O)[C@@H](N)CSSC[C@@H](C(=O)N[C@@H](Cc2ccc(O)cc2)C(=O)NCC(=O)O)NC(=O)[C@H](CCC(N)=O)NC(=O)[C@@H]2CCCN2C(=O)[C@@H]2CCCN2C1=O [CH12] (H-CGFATFSIPPQCYG-OH; disulfide 1-12)")
"> 50 µM"
>>> measured_value("CC[C@H](C)[C@@H]1NC(=O)[C@H](CO)NC(=O)[C@H](Cc2ccc(O)cc2)NC(=O)[C@H]([C@@H](C)O)NC(=O)[C@H](C)NC(=O)[C@H](CO)NC(=O)[C@@H](N)CSSC[C@@H](C(=O)N[C@@H](Cc2ccc(O)cc2)C(=O)O)NC(=O)[C@H](CCC(N)=O)NC(=O)[C@@H]2CCCN2C(=O)[C@@H]2CCCN2C1=O [CH8] (H-CSATYSIPPQCY-OH; disulfide 1-11; N-terminus and C-terminus assumed)")
"> 50 µM"
>>> measured_value("CC[C@H](C)[C@@H]1NC(=O)[C@@H]2CCCN2C(=O)[C@@H]2CCCN2C(=O)[C@H]([C@@H](C)CC)NC(=O)[C@H](CO)NC(=O)[C@H](Cc2ccccc2)NC(=O)[C@H]([C@@H](C)O)NC(=O)[C@H](C)NC(=O)[C@H]([C@@H](C)O)NC(=O)CNC(=O)[C@@H](N)CSSC[C@@H](C(=O)N[C@@H](CC(N)=O)C(=O)O)NC1=O [CH27] (H-CGTATFSIPPICN-OH; disulfide 1-12; N-terminus and C-terminus assumed)")
"6.66 µM"
>>> measured_value("CC[C@H](C)[C@@H]1NC(=O)[C@H](CO)NC(=O)[C@H](Cc2ccc(O)cc2)NC(=O)[C@H]([C@@H](C)O)NC(=O)[C@H](C)NC(=O)[C@H](CO)NC(=O)CNC(=O)[C@@H](N)CSSC[C@@H](C(=O)N[C@@H](Cc2ccc(O)cc2)C(=O)NCC(=O)O)NC(=O)[C@H](CCC(N)=O)NC(=O)[C@@H]2CCCN2C(=O)[C@@H]2CCCN2C1=O [CH15] (H-CGSATYSIPPQCYG-OH; disulfide 1-12; N-terminus and C-terminus assumed)")
"4.6 µM"

Now consider the entry below.
Lab book: IC50 of CSCC[C@@H]1NC(=O)[C@H](C)NC(=O)[C@@H]2CCCN2C(=O)[C@H](CC(N)=O)NC(=O)[C@H](CO)NC(=O)[C@H](Cc2ccccc2)NC(=O)[C@H]([C@@H](C)O)NC(=O)[C@@H](NC(=O)[C@@H](N)C(C)C)CSSC[C@@H](C(=O)N[C@@H](Cc2c[nH]cn2)C(=O)O)NC1=O [CH48] (H-VCTFSNPAMCH-OH; disulfide 2-10) noted as > 50 µM

* * *

Could you please report measured Residual trypsin activity for the items listed next?
# experimental.system: bovine trypsin (Bos taurus, UniProt P00760)
# Sequence (P00760 24-246): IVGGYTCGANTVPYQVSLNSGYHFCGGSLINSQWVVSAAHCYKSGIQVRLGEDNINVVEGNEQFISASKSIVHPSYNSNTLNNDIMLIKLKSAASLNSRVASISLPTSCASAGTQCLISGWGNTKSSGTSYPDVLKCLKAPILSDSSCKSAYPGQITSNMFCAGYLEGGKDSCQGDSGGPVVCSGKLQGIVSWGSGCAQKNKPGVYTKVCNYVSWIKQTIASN
# experiment: Trypsin inhibitory activity of peptides (BApNA hydrolysis, OD405; IC50, Ki, residual activity)
# Assay type: biochemical
# particulars: peptide 0.195 μM
Bridge positions count the residues as written; N and C are the ends. Square brackets hold non-standard residues; d marks the D form. Peptide text beside a SMILES is read from it. Nle = CCCC[C@H](N)C(=O)O
One number for each entry, in %.

Consider the following illustrative entries.
>>> measured_value("CC[C@H](C)[C@@H]1NC(=O)[C@H](C)NC(=O)[C@@H]2CCCN2C(=O)[C@H]([C@@H](C)CC)NC(=O)[C@H](CO)NC(=O)[C@H](CCCCN)NC(=O)[C@H]([C@@H](C)O)NC(=O)[C@H](C)NC(=O)[C@H](CCCNC(=N)N)NC(=O)CNC(=O)[C@@H](N)CSSC[C@@H](C(=O)N[C@@H](Cc2ccccc2)C(=O)O)NC1=O [BT10] (H-CGRATKSIPAICF-OH; disulfide 1-12)")
17.2
>>> measured_value("CC[C@H](C)[C@@H]1NC(=O)[C@@H]2CCCN2C(=O)[C@@H]2CCCN2C(=O)[C@H]([C@@H](C)CC)NC(=O)[C@H](C)NC(=O)[C@H](CCCCN)NC(=O)[C@H]([C@@H](C)O)NC(=O)[C@H](C)NC(=O)[C@H](CCCNC(=N)N)NC(=O)CNC(=O)[C@@H](N)CSSC[C@@H](C(=O)N[C@@H](Cc2ccccc2)C(=O)O)NC1=O [BT27] (H-CGRATKAIPPICF-OH; disulfide 1-12; C-terminus assumed)")
74.1
>>> measured_value("CCCC[C@@H]1NC(=O)[C@H](CO)NC(=O)[C@H](CCCCN)NC(=O)[C@H]([C@@H](C)O)NC(=O)[C@H](C)NC(=O)[C@H](CCCNC(=N)N)NC(=O)CNC(=O)[C@@H](N)CSSC[C@@H](C(=O)N[C@@H](Cc2ccccc2)C(=O)O)NC(=O)[C@H]([C@@H](C)CC)NC(=O)[C@@H]2CCCN2C(=O)[C@@H]2CCCN2C1=O [BT28] (H-CGRATKS[Nle]PPICF-OH; disulfide 1-12; C-terminus assumed)")
77.6

Now consider the entry below.
Lab book: Residual trypsin activity of CC[C@H](C)[C@@H]1NC(=O)[C@@H]2CCCN2C(=O)[C@@H]2CCCN2C(=O)[C@H]([C@@H](C)CC)NC(=O)[C@H](CO)NC(=O)[C@H](CCCCN)NC(=O)[C@H]([C@@H](C)O)NC(=O)[C@H](C)NC(=O)[C@H](CO)NC(=O)CNC(=O)[C@@H](N)CSSC[C@@H](C(=O)N[C@@H](Cc2ccccc2)C(=O)N2CCC[C@H]2C(=O)N[C@@H](CC(=O)O)C(=O)O)NC1=O [BT6] (H-CGSATKSIPPICFPD-OH; disulfide 1-12; N-terminus and C-terminus assumed) noted as 77.5

* * *

# experimental.system: UniProt P00772
# Sequence (P00772 27-266): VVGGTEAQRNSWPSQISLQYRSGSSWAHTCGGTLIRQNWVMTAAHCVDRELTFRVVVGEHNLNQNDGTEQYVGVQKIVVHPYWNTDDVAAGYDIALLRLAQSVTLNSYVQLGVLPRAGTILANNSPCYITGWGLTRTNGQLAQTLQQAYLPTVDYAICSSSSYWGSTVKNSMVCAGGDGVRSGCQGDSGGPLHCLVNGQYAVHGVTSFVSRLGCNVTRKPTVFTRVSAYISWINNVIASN
# experiment: Elastase inhibitory activity of peptides (AAApNA hydrolysis; IC50, Ki, residual activity)
# Type: biochemical
# particulars: peptide 100 μM; elastase 0.5 μM, AAApNA 1 mM
Bridge positions count the residues as written; N and C are the ends. Peptide text beside a SMILES is read from it.
Could you please report measured Residual activity of elastase for the items listed next?
Give bare numbers, in %.

Consider the following illustrative entries.
>>> measured_value("CC[C@H](C)[C@@H]1NC(=O)[C@@H]2CCCN2C(=O)[C@@H]2CCCN2C(=O)[C@H]([C@@H](C)CC)NC(=O)[C@H](CO)NC(=O)[C@H](C)NC(=O)[C@H]([C@@H](C)O)NC(=O)[C@@H](NC(=O)[C@@H](N)C(C)C)CSSC[C@@H](C(=O)N[C@@H](CCC(N)=O)C(=O)O)NC1=O [EC22] (H-VCTASIPPICQ-OH; disulfide 2-10; C-terminus assumed)")
0.0
>>> measured_value("CC[C@H](C)[C@H](N)C(=O)N[C@H]1CSSC[C@@H](C(=O)N[C@@H](CCC(N)=O)C(=O)O)NC(=O)[C@H]([C@@H](C)CC)NC(=O)[C@@H]2CCCN2C(=O)[C@@H]2CCCN2C(=O)[C@H]([C@@H](C)CC)NC(=O)[C@H](CO)NC(=O)[C@H](C)NC(=O)[C@H]([C@@H](C)O)NC1=O [EC23] (H-ICTASIPPICQ-OH; disulfide 2-10; C-terminus assumed)")
"−0.2"

Now consider the entry below.
Lab book: Residual activity of elastase of CC[C@H](C)[C@H](N)C(=O)N[C@H]1CSSC[C@@H](C(=O)N[C@@H](CCC(N)=O)C(=O)O)NC(=O)[C@H](CCC(N)=O)NC(=O)[C@@H]2CCCN2C(=O)[C@@H]2CCCN2C(=O)[C@H]([C@@H](C)CC)NC(=O)[C@H](CO)NC(=O)[C@H](C)NC(=O)[C@H]([C@@H](C)O)NC1=O [EC19] (H-ICTASIPPQCQ-OH; disulfide 2-10; N-terminus and C-terminus assumed) noted as 0.2

* * *

# experimental.system: α-chymotrypsin (Bos taurus, UniProt P00766)
# experiment: Chymotrypsin inhibitory activity of peptides (AAPFpNA hydrolysis; IC50, Ki, residual activity)
# Type: biochemical
# particulars: peptide 0.01 μM
Bridge positions count the residues as written; N and C are the ends. Peptide text beside a SMILES is read from it.
Could you please report measured Residual activity of chymotrypsin for the items listed next?
Numbers only, in %.

>>> measured_value("CC[C@H](C)[C@@H]1NC(=O)[C@H](CO)NC(=O)[C@H](Cc2ccccc2)NC(=O)[C@H]([C@@H](C)O)NC(=O)[C@@H](NC(=O)[C@@H](N)CC(C)C)CSSC[C@@H](C(=O)N[C@@H](Cc2ccc(O)cc2)C(=O)NCC(=O)O)NC(=O)[C@H](CCC(N)=O)NC(=O)[C@@H]2CCCN2C(=O)[C@@H]2CCCN2C1=O [CH1] (H-LCTFSIPPQCYG-OH; disulfide 2-10; N-terminus and C-terminus assumed)")
104.8
>>> measured_value("CC[C@H](C)[C@@H]1NC(=O)[C@H](CO)NC(=O)[C@H](Cc2ccccc2)NC(=O)[C@H]([C@@H](C)O)NC(=O)CNC(=O)[C@H](Cc2ccccc2)NC(=O)CNC(=O)[C@@H](N)CSSC[C@@H](C(=O)N[C@@H](Cc2ccc(O)cc2)C(=O)NCC(=O)O)NC(=O)[C@H](CCC(N)=O)NC(=O)[C@@H]2CCCN2C(=O)[C@@H]2CCCN2C1=O [CH7] (H-CGFGTFSIPPQCYG-OH; disulfide 1-12; N-terminus and C-terminus assumed)")
100.9

Now consider the entry below.
Lab book: Residual activity of chymotrypsin of CC[C@H](C)[C@@H]1NC(=O)[C@H](CO)NC(=O)[C@H](Cc2ccc(O)cc2)NC(=O)[C@H]([C@@H](C)O)NC(=O)[C@@H](NC(=O)[C@@H](N)CO)CSSC[C@@H](C(=O)N[C@@H](Cc2ccc(O)cc2)C(=O)NCC(=O)O)NC(=O)[C@H](CCC(N)=O)NC(=O)[C@@H]2CCCN2C(=O)[C@@H]2CCCN2C1=O [CH4] (H-SCTYSIPPQCYG-OH; disulfide 2-10; N-terminus and C-terminus assumed) noted as 101.8

// data source = patent US20230416329A1
